Target: GSK3A (human) (UniProt P49840)
Sequence (P49840 whole entry, looked up): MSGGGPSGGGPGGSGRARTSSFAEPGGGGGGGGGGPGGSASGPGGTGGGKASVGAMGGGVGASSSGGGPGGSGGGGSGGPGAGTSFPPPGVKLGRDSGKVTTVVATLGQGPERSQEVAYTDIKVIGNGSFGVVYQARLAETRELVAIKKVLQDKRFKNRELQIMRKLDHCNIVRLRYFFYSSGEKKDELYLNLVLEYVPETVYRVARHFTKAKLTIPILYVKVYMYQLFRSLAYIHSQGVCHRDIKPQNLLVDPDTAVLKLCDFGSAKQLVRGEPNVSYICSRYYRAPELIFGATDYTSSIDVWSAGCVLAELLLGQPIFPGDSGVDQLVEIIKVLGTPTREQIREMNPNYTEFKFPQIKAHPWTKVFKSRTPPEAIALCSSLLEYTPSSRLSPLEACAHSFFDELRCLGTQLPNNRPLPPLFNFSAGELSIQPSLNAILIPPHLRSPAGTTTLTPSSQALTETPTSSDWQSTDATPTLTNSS
Test: radiometric filter-binding kinase assay, Kinase HotSpot
Settings: compound 0.5 µM; ATP 10 µM

# Test Smiles, residual activity, %
data = [
    ("Cc1nc(-c2ccccc2)c(-c2ccncc2)o1", 112),
    ("COc1ccc(Cl)cc1NC(=O)Nc1cc(C)nc2ccccc12", 124),
    ("O=C1Nc2ccc(Br)cc2/C1=C\\c1cc2c([nH]1)CCCC2", 88.5),
    ("COc1cc2ncnc(Nc3ccc(OCc4ccccc4)cc3)c2cc1OC", 104),
    ("C[C@@H]1CCN(C(=O)CC#N)C[C@@H]1N(C)c1ncnc2[nH]ccc12", 103),
    ("COc1ccc2c(c1)c(C1=C(c3c[nH]c4ccccc34)C(=O)NC1=O)cn2CCCN(C)C", 14),
    ("O=C1C(Cl)=C(N2C(=O)CCC2=O)C(=O)c2ccccc21", 99.8),
    ("CN(C)CCCn1cc(C2=C(c3c[nH]c4ccccc34)C(=O)NC2=O)c2ccccc21", 11.2),
    ("COc1ccc(S(=O)(=O)N(CCO)c2ccccc2CN(C)C/C=C/c2ccc(Cl)cc2)cc1", 99.9),
    ("N#Cc1c[nH]c2c[nH]/c(=N\\Cc3cccnc3)cc2/c1=N\\c1ccc(F)c(Cl)c1", 88.5),
]
